Numbers sourced from patent US11433055B2.

- Tested on: Escherichia coli expressing NDM-1 (CLB30016)
- Assay type: cell-based
- COND: lowest concentration inhibiting 95% of bacterial growth; in the presence of β lactamase inhibitor (BLi, Relebactam); 22 hours, 35±2° C., OD600
- Protocol: Antibiotic Activity: Determination of Growth Inhibitory Concentration The concentrations of compounds required to inhibit the growth of various strains of bacteria were determined in an assay that assessed bacterial growth by measuring optical density at 600 nm (OD600). […] At the end of the incubation, absorbance at 600 nm was determined using a spectrophotometer. […]
READOUT: EC_CLB30016 MITC95 (µM)

COMPOUND	READOUT	REPORTED VALUE
C[n+]1cc(-c2ccc3c(c2)CC[C@@H](CO/N=C(\C(=O)N[C@@H]2C(=O)N(OS(=O)(=O)[O-])C2(C)C)c2csc(N)n2)O3)ccc1NCCN [Example 36]	EC_CLB30016 MITC95	12.5
C[n+]1cc(-c2ccc3c(c2)CC[C@H]([C@](C)(O/N=C(\C(=O)N[C@@H]2C(=O)N(OS(=O)(=O)[O-])C2(C)C)c2csc(N)n2)C(=O)O)O3)cn1C[C@@H](O)CN [Example 8]	EC_CLB30016 MITC95	100
C[n+]1cc(-c2ccc3c(c2)CC[C@@H](CO/N=C(\C(=O)N[C@@H]2C(=O)N(OS(=O)(=O)[O-])C2(C)C)c2csc(N)n2)O3)cn1CCCN [Example 10]	EC_CLB30016 MITC95	6.25
CC1(C)[C@H](NC(=O)/C(=N\O[C@](C)(C(=O)O)[C@H]2CCc3cc(-c4cn(C[C@@H](O)CN)[n+](CC5CNC5)c4)ccc3O2)c2csc(N)n2)C(=O)N1OS(=O)(=O)[O-] [Example 4]	EC_CLB30016 MITC95	12.5
C[n+]1cc(-c2ccc3c(c2)CC[C@H](CO/N=C(\C(=O)N[C@@H]2C(=O)N(OS(=O)(=O)[O-])C2(C)C)c2csc(N)n2)O3)cn1CCCN [Example 11]	EC_CLB30016 MITC95	6.25
C[n+]1cc(-c2ccc3c(c2)CC[C@H]([C@](C)(O/N=C(\C(=O)N[C@@H]2C(=O)N(OS(=O)(=O)[O-])C2(C)C)c2csc(N)n2)C(=O)O)O3)ccc1NCCN [Example 34]	EC_CLB30016 MITC95	25
CC1(C)[C@H](NC(=O)/C(=N\O[C@](C)(C(=O)O)[C@H]2CCc3cc(C4CN=C(NC(CN)CN)NC4)ccc3O2)c2csc(N)n2)C(=O)N1OS(=O)(=O)O.O=CO (some centres unmarked) [Example 31]	EC_CLB30016 MITC95	6.25
CC1(C)[C@H](NC(=O)/C(=N\O[C@](C)(C(=O)O)[C@H]2CCc3cc(-c4ccc(NCCCN)[n+](CC5CNC5)c4)ccc3O2)c2csc(N)n2)C(=O)N1OS(=O)(=O)[O-].O=CO [Example 22]	EC_CLB30016 MITC95	12.5
